System name: T1, human transferrin receptor (hTfR) fused to EGFP, on CHO cells (human, UniProt P02786 1-760)
T1 construct: whole, on cells; also called human TfR; CHO-hTfR-EGFP; not shown: EGFP from pEGFP-C1 vector, fused to the N-terminal (intracellular) end of hTfR
T1 sequence (P02786 whole entry, the tested form may be a part): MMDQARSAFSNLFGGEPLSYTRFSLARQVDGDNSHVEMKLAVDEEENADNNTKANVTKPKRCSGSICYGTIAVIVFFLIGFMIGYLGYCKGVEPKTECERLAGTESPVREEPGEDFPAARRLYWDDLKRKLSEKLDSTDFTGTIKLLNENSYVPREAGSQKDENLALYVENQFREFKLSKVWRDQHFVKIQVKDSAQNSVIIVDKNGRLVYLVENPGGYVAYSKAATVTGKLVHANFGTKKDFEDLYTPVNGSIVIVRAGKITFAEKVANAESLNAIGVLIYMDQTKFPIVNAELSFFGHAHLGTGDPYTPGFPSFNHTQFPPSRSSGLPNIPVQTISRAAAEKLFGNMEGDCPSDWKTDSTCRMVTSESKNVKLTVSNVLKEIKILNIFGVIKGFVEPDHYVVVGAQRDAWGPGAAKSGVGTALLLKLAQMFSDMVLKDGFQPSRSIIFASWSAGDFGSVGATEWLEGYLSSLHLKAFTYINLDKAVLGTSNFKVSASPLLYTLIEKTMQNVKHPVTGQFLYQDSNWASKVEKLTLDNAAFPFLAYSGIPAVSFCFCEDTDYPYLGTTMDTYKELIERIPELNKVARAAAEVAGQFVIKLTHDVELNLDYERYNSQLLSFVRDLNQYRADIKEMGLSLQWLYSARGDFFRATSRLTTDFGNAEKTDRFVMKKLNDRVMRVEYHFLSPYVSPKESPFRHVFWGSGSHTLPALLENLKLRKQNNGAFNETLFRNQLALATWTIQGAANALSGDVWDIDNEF
Method notes: apparent Kd, flow cytometry, CHO cells
Observed property: pKd
Kindly note that pKd refers to -log10 of the concentration in mol/L and answer with the value alone.

// below: answered binders
VHH A (C5) (VHH, form with the C-terminal myc-His6 tag (x = 1), since the VHHs were detected with anti-6His or anti-cMyc; the same holds for m12 to m126) VHH: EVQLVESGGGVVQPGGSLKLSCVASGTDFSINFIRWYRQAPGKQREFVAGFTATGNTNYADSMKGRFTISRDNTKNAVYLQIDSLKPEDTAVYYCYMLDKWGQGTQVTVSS :: 8.57
VHH A21 (C5^h2) (VHH) VHH: EVQLVESGGGVVQPGGSLRLSCAASGTDFSINFIRWVRQAPGKQREFVAGFTATGNTNYADSVKGRFTISRDNAKNTLYLQMNSLRPEDTAVYYCYMLDKWGQGTQVTVSS :: 6.57
C5^h25 (VHH) VHH: EVQLVESGGGVVQPGGSLRLSCAASGTDFSINFIRWVRQAPGKGLEFVAGFTATGNTNYADSVKGRFTISRDNAKNTLYLQIDSLRPEDTAVYYCYMLDKWGQGTQVTVSS :: 6.11

Then there is this binder:
I'd like to know its pKd. The binder in question is A9a (VHH) VHH: QVQLVQSGGGLVQAGGSLRLSCAASGSIFLINDMGWYRQAPGKQRELVAVRGGSTKYGDSVKGRFTISRDDAKNTVYLQMNSLKPEDTAVYYCHRESGLGSSEYWGQGTQVTVSS
5.73
